assay: protein stability index of a GFP-peptide fusion (yeast GPS) (PSI 1-4); higher = more stable; sorted into four equal gates, so the index is relative within each strain; conditions: ubr1∆
resultType: protein stability index
Numbers only.

These recorded examples may help you get a feel for the data.
residueString	protein stability index
WAADSVSSRVRGYTCQF [FAS1]	2.69
VADAKQLGEWAGLGKID [RPS12]	3.35

Could you tell me protein stability index for each of these sequences? They are listed below.
1. QKETQKVTKIWSKESNY [PRP28]
2. LTNEDPPGLMYLKAFDK [SSN2]

Response:
[1.95, 3.22]

====

assay: protein stability index of a GFP-peptide fusion (yeast GPS) (PSI 1-4); higher = more stable; sorted into four equal gates, so the index is relative within each strain; settings: san1∆
Use 1 when the recorded protein stability index is no lower than 3; use -1 when it is lower.

residueString	groupLabel
TEENKANTNSVTSMEAA [YIL149C/MLP2]	1
QLLIIEKEWENAIRIGE [SRP72]	-1
QETEGTNRHTLALETVL [SIR3]	-1
MNYLLDNKINEIKLLEI [CSI1]	-1

Prompt: Textbook exercise: given the entry KEDKSEAIDGNGEIKGE [SNF2] , state whether its protein stability index is greater than or equal to 3.
Response: -1

Prompt: Textbook exercise: given the entry TREDVSPHYNSQKQTLI [SSN3] , state whether its protein stability index is greater than or equal to 3.
Response: -1

Prompt: Textbook exercise: given the entry GLVNPKTVQSMTQRAIQ [SWI3] , state whether its protein stability index is greater than or equal to 3.
Response: -1

Prompt: Textbook exercise: given the entry LMCLSSKYCEKSLPLLI [YCS4] , state whether its protein stability index is greater than or equal to 3.
Response: -1

Prompt: Textbook exercise: given the entry QRETSGMIVISMENYHL [SRB8] , state whether its protein stability index is greater than or equal to 3.
Response: -1

Prompt: Textbook exercise: given the entry IPSGNVWNYTFMGTAFN [PRP8] , state whether its protein stability index is greater than or equal to 3.
Response: -1

Prompt: Textbook exercise: given the entry HLDNSKSVFSSAGLDSA [RPN1] , state whether its protein stability index is greater than or equal to 3.
Response: -1

Prompt: Textbook exercise: given the entry LVDSLATFTSIELTSYE [RPN7] , state whether its protein stability index is greater than or equal to 3.
Response: -1

Prompt: Textbook exercise: given the entry KINDESSIDKKSSILTV [YML103C/NUP188] , state whether its protein stability index is greater than or equal to 3.
Response: -1

Prompt: Textbook exercise: given the entry LEDIYTSAHEAIRADPA [RPL5] , state whether its protein stability index is greater than or equal to 3.
Response: 1

Prompt: Textbook exercise: given the entry FKYLLGVTDLFRHFIGI [ISW2] , state whether its protein stability index is greater than or equal to 3.
Response: -1

Prompt: Textbook exercise: given the entry IEALYDDDTFSDREMAA [RPN2] , state whether its protein stability index is greater than or equal to 3.
Response: -1

Prompt: Textbook exercise: given the entry EKKNDENSTSNSKPEKS [YLR335W/NUP2] , state whether its protein stability index is greater than or equal to 3.
Response: 1

Prompt: Textbook exercise: given the entry TMHTKTYAAEIAHNISA [RPL32] , state whether its protein stability index is greater than or equal to 3.
Response: -1

Prompt: Textbook exercise: given the entry MSKIQVAHSSRLANLID [SMB1] , state whether its protein stability index is greater than or equal to 3.
Response: -1

Prompt: Textbook exercise: given the entry ANLLFKKEKLKQENSTL [RPC82] , state whether its protein stability index is greater than or equal to 3.
Response: -1
